meta.source: ChEMBL document CHEMBL4334486

- target: Fucose-binding lectin PA-IIL (Pseudomonas aeruginosa (strain ATCC 15692 / DSM 22644 / CIP 104116 / JCM14847 / LMG 12228 / 1C / PRS 101 / PAO1))
- Sequence (Q9HYN5 whole entry): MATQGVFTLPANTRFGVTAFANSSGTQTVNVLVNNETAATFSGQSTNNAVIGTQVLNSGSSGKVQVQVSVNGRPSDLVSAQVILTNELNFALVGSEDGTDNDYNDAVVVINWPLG
- assay details: Inhibition of Pseudomonas aeruginosa LecB by fluorescence polarization assay
Would you kindly list IC50 for each of these molecules?
Could you give me the number in µM? Just the number is fine.

Data request: Looking for the measured IC50 of C[C@@H]1O[C@@H](OCc2cn(CCCCCC(=O)NOCc3ccccc3)nn2)[C@@H](O)[C@H](O)[C@@H]1O , can you help?
Data returned: 0.5

Data request: Looking for the measured IC50 of O=C(CCCCCn1cc(CO[C@H]2O[C@H](CO)[C@@H](O)[C@H](O)[C@@H]2O)nn1)NOCc1ccccc1 , can you help?
Data returned: 146
